MIC values, listed per item
Test system: Staphylococcus aureus
TEST_DETAILS: Antibacterial activity against methicillin-sensitive Staphylococcus aureus ATCC 29213 after 16 to 20 hrs by broth microdilution method
Type: functional

MOLECULE: COc1ccc(-c2nc(-c3ccc(Oc4ccccc4)cc3)no2)cc1[N+](=O)[O-]
MIC: ≥ 128 µg/mL
//
MOLECULE: Fc1ccc(Oc2ccc(-c3noc(-c4n[nH]cc4Cl)n3)cc2)cc1
MIC: 1 µg/mL
//
MOLECULE: FC(F)(F)c1ccc(Oc2ccc(-c3noc(-c4c[nH]cn4)n3)cc2)cc1
MIC: 2 µg/mL
//
MOLECULE: Oc1ccc(Cc2nc(-c3ccc(Oc4ccccc4)cc3)no2)cc1
MIC: 8 µg/mL
//
MOLECULE: O=C1C[C@H](c2nc(-c3ccc(Oc4ccc(C(F)(F)F)cc4)cc3)no2)CN1
MIC: ≥ 128 µg/mL
//
MOLECULE: FC(F)(F)c1ccc(Oc2ccc(-c3noc(-c4n[nH]cc4I)n3)cc2)cc1
MIC: 2 µg/mL
//
MOLECULE: CC(C)(C)OC(=O)N1CCC(Nc2c[nH]nc2-c2nc(-c3ccc(Oc4ccc(C(F)(F)F)cc4)cc3)no2)CC1
MIC: ≥ 128 µg/mL
//
MOLECULE: O=[N+]([O-])c1ccc(-c2nc(-c3ccc(Oc4ccccc4)cc3)no2)cc1
MIC: ≥ 32 µg/mL
//
MOLECULE: C=CCOc1cc(N)ccc1-c1nc(-c2ccc(Oc3ccccc3)cc2)no1
MIC: 8 µg/mL
//
MOLECULE: COc1cc(-c2nc(-c3ccc(Oc4ccccc4)cc3)no2)ccc1N
MIC: ≥ 128 µg/mL
//
MOLECULE: O=[N+]([O-])c1cc(-c2nc(-c3ccc(Oc4ccc(F)cc4)cc3)no2)cnc1O
MIC: 8 µg/mL
//
MOLECULE: Nc1c[nH]nc1-c1nc(-c2ccc(Oc3ccc(C(F)(F)F)cc3)cc2)no1
MIC: 4 µg/mL
//
MOLECULE: O=C1CC(c2nc(-c3ccc(Oc4ccc(C(F)(F)F)cc4)cc3)no2)NC(=O)N1 (configuration not stated)
MIC: ≥ 128 µg/mL
//
MOLECULE: O=[N+]([O-])c1c[nH]c(-c2nc(-c3ccc(Oc4ccc(C(F)(F)F)cc4)cc3)no2)c1
MIC: 8 µg/mL
//
MOLECULE: Nc1cc(-c2nc(-c3ccc(Oc4ccc(F)cc4)cc3)no2)ccc1O
MIC: ≥ 128 µg/mL
//
MOLECULE: FC(F)(F)c1ccc(Oc2ccc(-c3noc(-c4ccc5[nH]ccc5c4)n3)cc2)cc1
MIC: 2 µg/mL
//
MOLECULE: Cc1ccc(S(=O)(=O)N2CCC(c3nc(-c4ccc(Oc5ccccc5)cc4)no3)CC2)cc1
MIC: ≥ 128 µg/mL

Recorded values, source ChEMBL document CHEMBL3407479.
